Molecular target: Lanosterol 14-alpha demethylase (Rattus norvegicus)
Sequence (Q64654 whole entry): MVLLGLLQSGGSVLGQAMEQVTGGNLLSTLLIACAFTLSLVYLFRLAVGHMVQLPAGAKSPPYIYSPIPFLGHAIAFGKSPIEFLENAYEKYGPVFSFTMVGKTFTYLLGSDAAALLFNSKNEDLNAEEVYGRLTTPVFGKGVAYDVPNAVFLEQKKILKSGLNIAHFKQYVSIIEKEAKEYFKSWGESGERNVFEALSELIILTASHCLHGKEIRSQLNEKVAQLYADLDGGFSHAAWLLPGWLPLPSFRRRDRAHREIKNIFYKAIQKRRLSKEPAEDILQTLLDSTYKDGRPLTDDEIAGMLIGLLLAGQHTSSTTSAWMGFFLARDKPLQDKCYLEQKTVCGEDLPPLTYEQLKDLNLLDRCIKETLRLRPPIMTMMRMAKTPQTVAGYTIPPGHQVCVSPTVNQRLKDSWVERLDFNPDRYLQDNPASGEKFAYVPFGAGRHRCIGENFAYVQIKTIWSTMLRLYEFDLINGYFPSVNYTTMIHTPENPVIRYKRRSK
quantity_kind: pIC50
Worth noting: pIC50 values are minus log10 of concentrations stated in mol/L.

IN: Could you tell me which pIC50 is on file for `CC(=O)N1CCN(c2ccc(OC[C@H]3CO[C@@](Cn4ccnc4)(c4ccc(Cl)cc4Cl)O3)cc2)CC1` ?
OUT: 5.80

IN: Could you share which pIC50 value was measured for CC(=O)N1CCN(c2ccc(OCC3COC(Cn4ccnc4)(c4ccc(Cl)cc4Cl)O3)cc2)CC1 (stereo in doubt; 2) [KETOCONAZOLE] ?
OUT: 7.33

IN: Entry `CC(=O)N1CCN(c2ccc(OC[C@@H]3CO[C@](Cn4ccnc4)(c4ccc(Cl)cc4Cl)O3)cc2)CC1` has what pIC50?
OUT: 5.86

IN: // query pIC50 value for entry CC(=O)N1CCN(c2ccc(OCC3COC(Cn4ccnc4)(c4ccc(Cl)cc4Cl)O3)cc2)CC1 (stereo in doubt; 4) [KETOCONAZOLE]
OUT: 6.92
